Numbers sourced from the supplement of paper PMC11865577.

Tested on: TO-3-N3-2 (biotin conjugate)
Test: pull-down binding Z-score (relative to library population); higher = stronger binding
Conditions: RNA library: Library-2
Hi there, I'd appreciate the recorded pull-down binding Z-score for every entry that follows.
Just the number, please.

// query Answer with reported pull-down binding Z-score of CACAAAUAUGGCUCUUUGUG [hsa-mir-4474]
// result -0.469

// query Answer with reported pull-down binding Z-score of GGUGUUGCAGGAGCCUUAAAUAAGGCUACUAACAAUGCC [SHAPE_invivo_SARS-CoV-2_Motif_68]
// result -0.474

// query Answer with reported pull-down binding Z-score of UGUCAUUACUUCAGGUGAUGGCA
// result -0.0892

// query Answer with reported pull-down binding Z-score of CCUUCUCCUCUUUGCAGUGAUAAAGGAGG [hsa-mir-4460]
// result -0.351

// query Answer with reported pull-down binding Z-score of UUGUGUAUGUACUUAGCUGUACUAUA [hsa-mir-1244-1_1244-4_1244-2_1244-3]
// result -0.417

// query Answer with reported pull-down binding Z-score of CUGUCAUGGAAGCAAGUACUGGCAG [IAV_invivo_PA_3_Motif_16+IAV_invivo_PA_3_Motif_16]
// result 0.12

// query Answer with reported pull-down binding Z-score of UCCAUUUUUGGGUGUUUAUUACCACAAAAACAACAAAAGUUGGA [SHAPE_invitro_SARS-CoV-2_Motif_398]
// result 0.136

// query Answer with reported pull-down binding Z-score of GCUGGUGACAUUGCUAAUUCAUUUCACACCAGC [hsa-mir-4293]
// result -0.177

// query Answer with reported pull-down binding Z-score of UUUGCCGUCGAAAAUAAUGGCAAA [hsa-mir-548am]
// result -0.146

// query Answer with reported pull-down binding Z-score of GGGCGGAACACCCAGCCCC [hsa-mir-4417]
// result -0.246

// query Answer with reported pull-down binding Z-score of CCCAUAUGGACCUGCUAAGCUAUGGA [hsa-mir-1-1]
// result -0.0364

// query Answer with reported pull-down binding Z-score of UCUUCUUUUGGAAGGAAGA [hsa-mir-3122]
// result -0.532
